Sourced from patent US10562912B2

Entries annotated with measured IC50
# Tested on: LNCaP
# EXPERIMENT_NOTES: Cell growth inhibition assay, prostate cancer cell line LNCaP (medium with 10 ng/mL IL-6)
# Format: cell-based
# PROTOCOL_CONDITIONS: Homo sapiens, medium supplemented with 10 ng/mL of IL-6, 10,000 cells/well
RECORDED_METRIC: IC50 (µM)

MOLECULE: CS(=O)(=O)Nc1cc2cc(C(=O)Nc3cc(Cl)cc(Oc4cc(O)cc(Cl)c4)c3)sc2cc1Cl
ENDPOINT_UNIT: µM
CENSORING_OPERATOR: >
REPORTED_RESULT: 1.1
--
MOLECULE: CS(=O)(=O)Nc1ccc2sc(C(=O)Nc3cc(Cl)cc(-c4ccc(F)cc4F)n3)cc2c1
ENDPOINT_UNIT: µM
CENSORING_OPERATOR: =
REPORTED_RESULT: 0.15
--
MOLECULE: COc1ccc(C(C)(C)c2cc(Cl)cc(NC(=O)c3cc4cc(NS(C)(=O)=O)c(Cl)cc4s3)c2)cc1
ENDPOINT_UNIT: µM
CENSORING_OPERATOR: =
REPORTED_RESULT: 0.013
--
MOLECULE: CS(=O)(=O)Nc1ccc2cc(C(=O)Nc3cc(Br)cc(-c4ccc(F)cc4F)c3)sc2c1
ENDPOINT_UNIT: µM
CENSORING_OPERATOR: =
REPORTED_RESULT: 3.2
--
MOLECULE: COc1cc(F)cc(C(C)(C)c2cc(Cl)cc(NC(=O)c3cc4cc(NS(C)(=O)=O)ccc4s3)c2)c1
ENDPOINT_UNIT: µM
CENSORING_OPERATOR: =
REPORTED_RESULT: 0.037
--
MOLECULE: CS(=O)(=O)Nc1ccc2cc(C(=O)Nc3cc(-c4ccc(F)cc4F)cc(C(F)(F)F)c3)[nH]c2c1
ENDPOINT_UNIT: µM
CENSORING_OPERATOR: =
REPORTED_RESULT: 3.7
--
MOLECULE: C[S+]([O-])c1ccc(C(C)(C)c2cc(Cl)cc(NC(=O)c3cc4cc(NS(C)(=O)=O)ccc4s3)c2)cc1 (stereo not drawn)
ENDPOINT_UNIT: µM
CENSORING_OPERATOR: >
REPORTED_RESULT: 1.1
--
MOLECULE: CS(=O)(=O)Nc1ccc2cc(C(=O)Nc3cccc(S(=O)(=O)c4cccnc4)c3)[nH]c2c1
ENDPOINT_UNIT: µM
CENSORING_OPERATOR: >
REPORTED_RESULT: 10
--
MOLECULE: CC(C)Oc1cc(CN2CCOCC2)cc(C(C)(C)c2cc(Cl)cc(NC(=O)c3cc4cc(NS(C)(=O)=O)ccc4s3)c2)c1
ENDPOINT_UNIT: µM
CENSORING_OPERATOR: =
REPORTED_RESULT: 0.11
--
MOLECULE: O=C(Nc1cccc(-c2ccccc2C(F)(F)F)c1)c1nc2cc([N+](=O)[O-])ccc2[nH]1
ENDPOINT_UNIT: µM
CENSORING_OPERATOR: =
REPORTED_RESULT: 1.56
--
MOLECULE: CS(=O)(=O)Nc1ccc2cc(C(=O)Nc3cccc(S(=O)(=O)c4cccc(CC#N)c4)c3)[nH]c2c1
ENDPOINT_UNIT: µM
CENSORING_OPERATOR: >
REPORTED_RESULT: 10
--
MOLECULE: CS(=O)(=O)Nc1ccc2sc(C(=O)Nc3cc(Br)cc(S(=O)(=O)N4CCc5c(F)cc(F)cc5C4)c3)cc2c1
ENDPOINT_UNIT: µM
CENSORING_OPERATOR: =
REPORTED_RESULT: 1
--
MOLECULE: Cn1cccc1-c1cc(NC(=O)c2cc3ccc(NS(C)(=O)=O)cc3[nH]2)cc(-c2ccc(F)cc2F)c1
ENDPOINT_UNIT: µM
CENSORING_OPERATOR: =
REPORTED_RESULT: 2.4
--
MOLECULE: CS(=O)(=O)Nc1ccc2cc(C(=O)Nc3cc(C#N)cc(-c4ccc(F)cc4C(F)(F)F)c3)[nH]c2c1
ENDPOINT_UNIT: µM
CENSORING_OPERATOR: =
REPORTED_RESULT: 3
--
MOLECULE: CS(=O)(=O)Nc1ccc2sc(C(=O)Nc3cc(Cl)cc(-c4ccc(F)cc4F)c3)cc2c1
ENDPOINT_UNIT: µM
CENSORING_OPERATOR: =
REPORTED_RESULT: 0.063

----------
# TESTED_SYSTEM: STAT3 (Homo sapiens, UniProt P40763)
# Construct: plasmid pSTAT3-TA-luc), which contains a stably operating STAT3 promoter; endogenous in cells
# Sequence (P40763 whole entry): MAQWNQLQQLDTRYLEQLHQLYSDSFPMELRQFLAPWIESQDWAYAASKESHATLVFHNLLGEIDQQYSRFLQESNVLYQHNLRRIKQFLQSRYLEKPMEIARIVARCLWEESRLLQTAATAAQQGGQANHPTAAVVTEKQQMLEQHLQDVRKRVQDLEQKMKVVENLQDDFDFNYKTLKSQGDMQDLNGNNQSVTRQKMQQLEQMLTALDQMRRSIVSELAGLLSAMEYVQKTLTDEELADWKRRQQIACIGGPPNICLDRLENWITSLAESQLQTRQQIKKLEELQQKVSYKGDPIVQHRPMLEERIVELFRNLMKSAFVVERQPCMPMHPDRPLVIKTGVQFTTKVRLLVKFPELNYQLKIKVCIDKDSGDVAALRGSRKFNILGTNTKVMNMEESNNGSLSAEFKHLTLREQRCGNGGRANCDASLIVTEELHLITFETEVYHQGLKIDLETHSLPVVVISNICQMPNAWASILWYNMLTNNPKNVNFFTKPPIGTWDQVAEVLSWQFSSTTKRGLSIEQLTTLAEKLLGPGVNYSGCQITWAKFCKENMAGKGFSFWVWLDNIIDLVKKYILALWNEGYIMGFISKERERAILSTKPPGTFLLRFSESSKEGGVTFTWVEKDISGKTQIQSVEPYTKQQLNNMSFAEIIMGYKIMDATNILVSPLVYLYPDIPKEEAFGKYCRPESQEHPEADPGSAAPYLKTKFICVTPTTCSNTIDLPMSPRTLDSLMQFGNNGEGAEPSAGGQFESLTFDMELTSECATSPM
# EXPERIMENT_NOTES: STAT3 reporter gene assay (luciferase), LNCaP stable cell line (pSTAT3-TA-luc), IL-6 stimulation
# Assay type: cell-based
RECORDED_METRIC: IC50 (µM)

COMPOUND: CC(C)COc1cc(NC(=O)c2cc3ccc(NS(C)(=O)=O)cc3[nH]2)cc(-c2ccc(F)cc2F)c1 [Example 367]
REPORTED_RESULT: 0.38
//
COMPOUND: CC(C)Oc1cc(OC(F)(F)F)cc(C2(c3cc(Cl)cc(NC(=O)c4cc5cc(N(C)S(C)(=O)=O)c(F)cc5s4)c3)CC2)c1 [Example 430]
REPORTED_RESULT: 0.012
//
COMPOUND: CS(=O)(=O)Nc1ccc2cc(C(=O)Nc3cc(C#N)cc(-c4ccc(F)cc4C(F)(F)F)c3)[nH]c2c1 [Example 315]
REPORTED_RESULT: 2.6
//
COMPOUND: CN(C)c1cc(NC(=O)c2cc3cc(NS(C)(=O)=O)ccc3o2)cc(-c2ccc(F)cc2F)c1 [Example 376]
REPORTED_RESULT: 5.2

----------
# Tested on: DU-145
# EXPERIMENT_NOTES: Cell growth inhibition assay, prostate cancer cell line DU-145
# Assay type: cell-based
# PROTOCOL_CONDITIONS: Homo sapiens, DU-145 prostate cancer cell line
Recorded measurements of IC50, one per entry

COMPOUND: CC(C)(c1cc(Cl)cc(NC(=O)c2cc3cc(NS(C)(=O)=O)ccc3s2)c1)c1cccs1 [Example 170]
TESTED_SYSTEM: DU-145
IC50: 0.005 µM

COMPOUND: COCCS(=O)(=O)Nc1cc2cc(C(=O)Nc3cc(Cl)cc(C(C)(C)c4ccc(Cl)cc4)c3)sc2cc1Cl [Example 185]
TESTED_SYSTEM: DU-145
IC50: 0.007 µM

COMPOUND: CC(C)(c1cc(Cl)cc(NC(=O)c2cc3cc(NS(C)(=O)=O)ccc3s2)c1)c1cc(OC2CCNCC2)cc(OC(F)(F)F)c1 [Example 96]
TESTED_SYSTEM: DU-145
IC50: > 1.1 µM

COMPOUND: CC(C)(c1ccc(F)cc1)c1cc(Cl)cc(NC(=O)c2cc3cc(NS(C)(=O)=O)c(Cl)cc3s2)c1 [Example 182]
TESTED_SYSTEM: DU-145
IC50: 0.005 µM

----------
# TESTED_SYSTEM: STAT3 (Homo sapiens)
# Construct: plasmid pSTAT3-TA-luc), which contains a stably operating STAT3 promoter; endogenous in cells
# EXPERIMENT_NOTES: STAT3 reporter gene assay (luciferase), LNCaP stable cell line (pSTAT3-TA-luc), IL-6 stimulation
# Assay type: cell-based
Mark rule met for IC50 under 0.4 µM, rule not met if at or over.

COMPOUND_STRUCTURE: CS(=O)(=O)Nc1ccc2sc(C(=O)Nc3cc(Cl)cc(Oc4ccc(C(F)(F)F)cc4)c3)cc2c1
ASSIGNED_CATEGORY: rule met
//
COMPOUND_STRUCTURE: CS(=O)(=O)Nc1ccc2cc(C(=O)Nc3cc(-c4cc[nH]n4)cc(-c4ccc(F)cc4F)c3)[nH]c2c1
ASSIGNED_CATEGORY: rule met
//
COMPOUND_STRUCTURE: CC(C)(c1cccc(NC(=O)c2cc3ccc(NS(C)(=O)=O)cc3[nH]2)c1)c1ccc(F)cc1F
ASSIGNED_CATEGORY: rule met
//
COMPOUND_STRUCTURE: COc1cc(NS(C)(=O)=O)cc2cc(C(=O)Nc3cccc(-c4ccc(F)cc4F)c3)oc12
ASSIGNED_CATEGORY: rule not met
//
COMPOUND_STRUCTURE: CS(=O)(=O)Nc1ccc2cc(C(=O)Nc3cccc(-c4ccc(F)cc4C(F)(F)F)c3)[nH]c2c1
ASSIGNED_CATEGORY: rule met
//
COMPOUND_STRUCTURE: CC(C)(c1cccc(NC(=O)c2cc3ccc(NS(C)(=O)=O)cc3[nH]2)c1)c1ccccc1F
ASSIGNED_CATEGORY: rule met
//
COMPOUND_STRUCTURE: CS(=O)(=O)Nc1ccc2cc(C(=O)Nc3cc(-c4ccc(F)cc4F)cc(-c4ccc(F)cc4F)c3)[nH]c2c1
ASSIGNED_CATEGORY: rule not met
//
COMPOUND_STRUCTURE: CNc1cc(NC(=O)c2cc3ccc(NS(C)(=O)=O)cc3[nH]2)cc(-c2ccc(F)cc2F)c1
ASSIGNED_CATEGORY: rule not met
//
COMPOUND_STRUCTURE: CC(C)Oc1cc(CN2CCC3(CC2)COC3)cc(C(C)(C)c2cc(Cl)cc(NC(=O)c3cc4cc(NS(C)(=O)=O)ccc4s3)c2)c1
ASSIGNED_CATEGORY: rule met
//
COMPOUND_STRUCTURE: COc1cc(NC(=O)c2cc3cc(NS(C)(=O)=O)ccc3s2)cc(-c2ccc(F)cc2F)c1
ASSIGNED_CATEGORY: rule met
//
COMPOUND_STRUCTURE: NS(=O)(=O)Nc1ccc2cc(C(=O)Nc3cccc(-c4ccccc4C(F)(F)F)c3)[nH]c2c1
ASSIGNED_CATEGORY: rule not met
//
COMPOUND_STRUCTURE: CS(=O)(=O)Nc1cc2cc(C(=O)Nc3cc(Cl)cc(Oc4nccs4)c3)sc2cc1Cl
ASSIGNED_CATEGORY: rule met
//
COMPOUND_STRUCTURE: C#Cc1cc(NC(=O)c2cc3cc(NS(C)(=O)=O)ccc3s2)cc(C(C)(C)c2ccc(F)cc2F)c1
ASSIGNED_CATEGORY: rule met
//
COMPOUND_STRUCTURE: CS(=O)(=O)Nc1ccc2cc(C(=O)Nc3cccc(C(=O)c4ccccc4)c3)[nH]c2c1
ASSIGNED_CATEGORY: rule not met
//
COMPOUND_STRUCTURE: CS(=O)(=O)Nc1ccc2[nH]c(C(=O)Nc3cccc(-c4ccc(F)cc4F)c3)cc2c1
ASSIGNED_CATEGORY: rule not met
